assay: protein stability index of a GFP-peptide fusion (GPS, HEK-293T) (PSI 1-6); higher = more stable; conditions: treatment: MLN4924 1 uM, 8 h; c terminus: a fixed tail appended;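 further: 24-mer peptide tiles fused after GFP, lentivirally expressed, FACS-sorted into six equal bins by GFP/DsRed ratio, decoded by Illumina sequencing, PSI is the read-weighted mean bin number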
protein stability index: recorded values

KAKANGITMYAVGVGKAIEEELQE [MATN2] = 4.12
AQDPDVGTNTVSFYTLSPNSHFSL [PCDHGC5] = 2.61
LLDALSPEQLVLTLLEAEPPHVLI [ESR2] = 2.08
LVLKAHHDIVRFLVQLDDYRFASA [WDR41] = 2.96
SPFAQFACDNGLNVRGGKPDDITV [PPTC7] = 4.14

Prompt line: Please give the documented protein stability index of PEHRAFGSPFGLEEPQWVPDKECR [ZFYVE21]
Response line: 4.62

Prompt line: In one line, give reported protein stability index of the entry YDSQPQDVLGIRQLERPLPLTSVC [TRAF3IP2] .
Response line: 3.74

Prompt line: Recall and state the measured protein stability index for EQKVLSRLVESLSTQIRALTEQQE [RASAL3] .
Response line: 2.76

Prompt line: Specify measured protein stability index for VCEVQVHGGSLLGKKYNWSCDDLM [GFOD1] .
Response line: 2.35

Prompt line: Provide measured protein stability index value, entry: HCRKCGKAVCGKCSSKRSSIPLMG [WDFY2]
Response line: 3.93

Prompt line: Specify measured protein stability index for LSANLHGGAVVANYPYDKSFEHRV [CPN1] .
Response line: 3.5

Prompt line: Look up and state reported protein stability index for LEISGIIMSRVNAYQQGVGYQMLG [PHTF1]
Response line: 2.63

Prompt line: Supply protein stability index value. Item: LSDREVVNLFLHFTVNPKPRVEYI [BTBD1]
Response line: 2.5
